Collected kcat/Km values appear next to each entry.
Substrate: O=C(O)C=C(O)C(=O)O
Test Name: purified protein
Condition Set: pH 7.5, 22 °C, 10 mM potassium phosphate, 0.3 mM NADH, malate dehydrogenase, OAA added in dry acetone
Please reply with the bare figure in M⁻¹ s⁻¹ and do not write the unit itself.

{"Protein": "Bt FAHD2A (Bos taurus) (protein) ATQLPVLPRSEVTFLAPVTRPDKVVCVGMNYADHCREQNVPVPKEPIIFSKFASAIVGPYDNIILPPESQEVDWEVELAVVIGKRGKYIKATDAMAHVAGFTVAHDVSARDWQMGRNGKQWLLGKTFDTFCPLGPALVTKDSVADPHNLKICCRVNGEVMQSSNTNQMVFKTEELITWVSQFVTLYPGDIILTGTPPGVGVFRKPPVFLKKGDEVQCEIEELGVIINKVV", "kcat/Km (M⁻¹ s⁻¹)": "1.63e+06"}

Now for a further protein.
Q: Could you tell me which kcat/Km is on file for Sc FMP41 (Saccharomyces cerevisiae S288C) (protein) MSYNYLKAARKIICIGRNYAAHIKELNNSTPKQPFFFLKPTSSIVTPLSSSLVKTTRPANSTFNGLNEDGTNPGPIFIPRGVKVHHEIELALIVSKHLSNVTKMKPEEVYDSISGVALALDLTARNVQDEAKKKGLPWTISKGFDTFMPISAIVSREKFSSYKSNLQDIFRVKCSVNGQLRQDGGTNLMLHPLHKILQHISTMISLEPGDIILTGTPAGVGELKPGDRVHCELLQNNDNIVDMNFECENRPGPYEFRET ?
A: 1.75e+06
